Provide the reported Mean % WT Binding of each item.
target: human CD33 V214A (human, UniProt P20138 18-364); test: alanine scan, flow cytometry, HEK293-T;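 further: antibody binding to each alanine-substituted CD33 mutant expressed transiently in HEK293-T, read as fluorescence minus background, mean of duplicates, relative to wild-type CD33 set as 100%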
Sequence (P20138 18-364 V214A limits assumed): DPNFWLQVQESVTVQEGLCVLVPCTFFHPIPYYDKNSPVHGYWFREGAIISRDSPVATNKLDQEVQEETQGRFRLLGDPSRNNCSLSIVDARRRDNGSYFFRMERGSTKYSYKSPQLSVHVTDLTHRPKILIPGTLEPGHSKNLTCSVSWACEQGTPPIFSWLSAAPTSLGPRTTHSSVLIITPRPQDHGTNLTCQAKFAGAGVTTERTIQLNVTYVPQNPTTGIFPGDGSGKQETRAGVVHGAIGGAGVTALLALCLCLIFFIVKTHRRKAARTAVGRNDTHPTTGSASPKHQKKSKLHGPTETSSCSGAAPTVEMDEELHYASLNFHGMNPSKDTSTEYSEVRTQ
Provide only the numeric value, understood in %.

q: Mean % WT Binding for Refmab #2 (antibody, V domains shown, In the alanine scan antibodies were used as IgG or Fab) VH: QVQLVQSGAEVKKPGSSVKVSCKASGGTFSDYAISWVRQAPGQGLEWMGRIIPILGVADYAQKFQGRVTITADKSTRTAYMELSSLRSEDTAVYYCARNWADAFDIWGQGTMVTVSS VL: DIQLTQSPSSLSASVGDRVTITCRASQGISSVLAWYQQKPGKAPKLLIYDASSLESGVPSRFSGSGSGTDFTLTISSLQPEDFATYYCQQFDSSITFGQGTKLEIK ?
a: 118

q: Further, for Refmab #1 (antibody, V domains shown, In the alanine scan antibodies were used as IgG or Fab; also called hP67.6) VH: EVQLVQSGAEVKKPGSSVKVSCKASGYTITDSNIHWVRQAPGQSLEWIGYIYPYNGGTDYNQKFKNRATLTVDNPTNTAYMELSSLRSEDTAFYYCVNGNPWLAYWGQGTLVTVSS VL: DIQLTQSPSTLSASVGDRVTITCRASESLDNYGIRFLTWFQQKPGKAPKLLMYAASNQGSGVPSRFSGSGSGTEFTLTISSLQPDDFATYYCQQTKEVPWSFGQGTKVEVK ?
a: 80.5

q: Further, for Refmab #3 (antibody, V domains shown, In the alanine scan antibodies were used as IgG or Fab) VH: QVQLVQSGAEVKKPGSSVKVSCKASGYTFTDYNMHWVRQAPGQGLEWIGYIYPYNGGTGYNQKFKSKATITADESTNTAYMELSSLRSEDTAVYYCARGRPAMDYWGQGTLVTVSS VL: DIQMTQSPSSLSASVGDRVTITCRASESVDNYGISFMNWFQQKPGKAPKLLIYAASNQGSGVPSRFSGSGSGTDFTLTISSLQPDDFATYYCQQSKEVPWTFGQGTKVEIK ?
a: 102

q: Further, for Refmab #4 (antibody, V domains shown, In the alanine scan antibodies were used as IgG or Fab) VH: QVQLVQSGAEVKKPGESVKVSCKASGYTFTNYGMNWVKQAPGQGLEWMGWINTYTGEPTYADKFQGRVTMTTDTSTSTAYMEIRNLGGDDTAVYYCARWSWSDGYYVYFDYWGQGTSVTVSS VL: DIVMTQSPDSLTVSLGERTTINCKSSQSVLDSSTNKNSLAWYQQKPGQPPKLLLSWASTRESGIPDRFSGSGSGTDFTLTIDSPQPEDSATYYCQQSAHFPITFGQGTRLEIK ?
a: 101
